These entries and their values trace back to the supplement of paper PMC3334620.

- target or system: Ecm22 (UniProt Q05958)
- Sequence: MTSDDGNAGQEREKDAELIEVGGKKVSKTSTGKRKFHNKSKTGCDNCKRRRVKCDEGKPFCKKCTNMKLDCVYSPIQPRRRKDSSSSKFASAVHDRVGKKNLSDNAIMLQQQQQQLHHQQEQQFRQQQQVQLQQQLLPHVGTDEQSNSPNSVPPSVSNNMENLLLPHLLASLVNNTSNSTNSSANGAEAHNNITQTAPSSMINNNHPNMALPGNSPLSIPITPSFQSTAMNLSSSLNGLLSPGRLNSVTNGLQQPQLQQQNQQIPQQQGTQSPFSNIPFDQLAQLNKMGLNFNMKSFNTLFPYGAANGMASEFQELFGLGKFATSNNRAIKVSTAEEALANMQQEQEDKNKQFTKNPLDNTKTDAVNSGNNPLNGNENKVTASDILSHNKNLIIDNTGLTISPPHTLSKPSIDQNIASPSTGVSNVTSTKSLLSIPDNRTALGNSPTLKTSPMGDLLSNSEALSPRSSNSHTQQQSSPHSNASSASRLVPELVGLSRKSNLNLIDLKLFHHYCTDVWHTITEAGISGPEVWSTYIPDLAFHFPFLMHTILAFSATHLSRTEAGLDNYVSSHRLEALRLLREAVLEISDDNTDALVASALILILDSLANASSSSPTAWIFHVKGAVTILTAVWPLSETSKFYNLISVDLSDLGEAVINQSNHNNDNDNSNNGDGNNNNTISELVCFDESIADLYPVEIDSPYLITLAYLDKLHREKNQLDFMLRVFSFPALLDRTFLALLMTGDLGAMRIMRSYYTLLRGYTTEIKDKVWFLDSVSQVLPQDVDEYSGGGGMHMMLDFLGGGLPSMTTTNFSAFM
- experiment: PBM E-score (8-mer binding enrichment) (E-score (-0.5 to 0.5)); higher = stronger / more preferred TF binding
- test parameters: protein concentration: 200 nM; construct: GST-full length
Whole data set: some 33,000 sequences, median “E-score (-0.5 to 0.5)” near -0.041, cut for the highest 2% near 0.37. What follows is part of a selection rich in the highest values, with near analogues and random picks from the rest.
value type: PBM E-score
The reply should be a number, written without any unit.

Which PBM E-score reading was recorded for the sequence CGCAAGCG ?
0.142

Tell me the measured PBM E-score of ATCTTTTC , please.
-0.0858

State the recorded PBM E-score for this entry: ACGACCAC
0.35

----------
- target or system: Ecm22 (UniProt Q05958)
- Sequence: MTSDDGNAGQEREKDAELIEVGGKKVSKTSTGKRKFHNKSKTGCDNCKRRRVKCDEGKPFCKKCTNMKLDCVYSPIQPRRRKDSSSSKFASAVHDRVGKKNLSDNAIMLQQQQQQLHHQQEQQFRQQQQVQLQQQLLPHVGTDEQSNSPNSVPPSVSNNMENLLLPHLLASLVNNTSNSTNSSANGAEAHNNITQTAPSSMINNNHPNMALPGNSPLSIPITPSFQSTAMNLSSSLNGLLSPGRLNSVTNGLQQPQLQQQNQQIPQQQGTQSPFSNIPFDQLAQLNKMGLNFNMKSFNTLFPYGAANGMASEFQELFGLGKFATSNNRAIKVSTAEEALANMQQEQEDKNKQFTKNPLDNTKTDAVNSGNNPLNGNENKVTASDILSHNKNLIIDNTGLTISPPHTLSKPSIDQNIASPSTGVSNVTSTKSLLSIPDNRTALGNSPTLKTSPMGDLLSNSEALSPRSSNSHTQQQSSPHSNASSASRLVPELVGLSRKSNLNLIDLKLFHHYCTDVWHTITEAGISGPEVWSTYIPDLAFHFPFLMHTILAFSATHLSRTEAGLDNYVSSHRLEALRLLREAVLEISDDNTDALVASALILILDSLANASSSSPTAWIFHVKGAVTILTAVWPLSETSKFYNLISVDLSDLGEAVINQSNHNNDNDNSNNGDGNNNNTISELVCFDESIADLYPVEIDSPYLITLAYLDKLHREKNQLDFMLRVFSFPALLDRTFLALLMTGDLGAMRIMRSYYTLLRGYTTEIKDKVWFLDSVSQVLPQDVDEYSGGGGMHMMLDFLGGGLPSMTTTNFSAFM
- experiment: PBM E-score (8-mer binding enrichment) (E-score (-0.5 to 0.5)); higher = stronger / more preferred TF binding
- test parameters: protein concentration: 200 nM; construct: GST-full length
In all, about 33,000 sequences were measured (“E-score (-0.5 to 0.5)”: median about -0.041, highest 2% from about 0.37 on). Many of the other results were omitted from the sample, so the highest values are more common in it than they were.
value type: PBM E-score
Hey, just send me the number, nothing else.

residue codes	PBM E-score
GAAGCAGA	-0.215
TAAAGCGA	0.213
AACCGAAA	0.235

Turning to the following sequence.
Could you tell me which PBM E-score is on file for TCTAGGAA ?
-0.0513

----------
- target or system: Ecm22 (UniProt Q05958)
- Sequence: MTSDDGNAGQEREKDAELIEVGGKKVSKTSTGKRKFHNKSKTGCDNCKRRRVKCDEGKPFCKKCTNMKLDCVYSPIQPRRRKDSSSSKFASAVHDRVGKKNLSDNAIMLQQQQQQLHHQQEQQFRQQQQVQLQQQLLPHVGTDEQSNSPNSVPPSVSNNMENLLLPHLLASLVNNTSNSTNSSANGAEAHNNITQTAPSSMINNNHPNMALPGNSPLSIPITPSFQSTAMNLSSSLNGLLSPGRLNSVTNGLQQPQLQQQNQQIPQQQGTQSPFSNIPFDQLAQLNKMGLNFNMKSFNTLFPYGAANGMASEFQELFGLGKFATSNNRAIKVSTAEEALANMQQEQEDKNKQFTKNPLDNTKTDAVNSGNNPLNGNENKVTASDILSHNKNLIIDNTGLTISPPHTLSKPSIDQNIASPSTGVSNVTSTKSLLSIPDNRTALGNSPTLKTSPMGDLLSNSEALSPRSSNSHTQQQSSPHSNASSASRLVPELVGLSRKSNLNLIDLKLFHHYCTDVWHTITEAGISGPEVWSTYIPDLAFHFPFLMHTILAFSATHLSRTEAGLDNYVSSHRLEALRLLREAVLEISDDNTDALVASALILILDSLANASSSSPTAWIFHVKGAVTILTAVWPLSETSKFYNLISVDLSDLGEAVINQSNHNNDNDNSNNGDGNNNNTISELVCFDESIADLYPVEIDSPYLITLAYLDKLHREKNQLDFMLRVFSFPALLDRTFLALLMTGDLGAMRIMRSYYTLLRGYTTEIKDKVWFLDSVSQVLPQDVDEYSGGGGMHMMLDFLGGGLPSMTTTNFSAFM
- experiment: PBM E-score (8-mer binding enrichment) (E-score (-0.5 to 0.5)); higher = stronger / more preferred TF binding
- test parameters: protein concentration: 200 nM; construct: GST-full length
Whole data set: some 33,000 sequences, median “E-score (-0.5 to 0.5)” near -0.041, cut for the highest 2% near 0.37. Many of the other results were omitted from the sample, so the highest values are more common in it than they were.
value type: PBM E-score
In your answer, state the number alone without any accompanying words.

residue codes	PBM E-score
TATATCGA	0.131
CCCGTTTC	0.216
ACCGTTTG	0.287
ACCGTTTC	0.187
AGTACCTA	-0.104
ACGTAGCA	0.0433
GCGTAGAA	-0.0103
TCGTAGCA	0.419

May I ask what PBM E-score has been recorded for CCGTAGAA ?
0.122

Query: PBM E-score; subject: CACGTTTA
0.256

Could you tell me which PBM E-score is on file for AGCGGGTA ?
0.107

----------
Catalogue of sequences with associated PBM E-score
- target or system: Ecm22 (UniProt Q05958)
- Sequence: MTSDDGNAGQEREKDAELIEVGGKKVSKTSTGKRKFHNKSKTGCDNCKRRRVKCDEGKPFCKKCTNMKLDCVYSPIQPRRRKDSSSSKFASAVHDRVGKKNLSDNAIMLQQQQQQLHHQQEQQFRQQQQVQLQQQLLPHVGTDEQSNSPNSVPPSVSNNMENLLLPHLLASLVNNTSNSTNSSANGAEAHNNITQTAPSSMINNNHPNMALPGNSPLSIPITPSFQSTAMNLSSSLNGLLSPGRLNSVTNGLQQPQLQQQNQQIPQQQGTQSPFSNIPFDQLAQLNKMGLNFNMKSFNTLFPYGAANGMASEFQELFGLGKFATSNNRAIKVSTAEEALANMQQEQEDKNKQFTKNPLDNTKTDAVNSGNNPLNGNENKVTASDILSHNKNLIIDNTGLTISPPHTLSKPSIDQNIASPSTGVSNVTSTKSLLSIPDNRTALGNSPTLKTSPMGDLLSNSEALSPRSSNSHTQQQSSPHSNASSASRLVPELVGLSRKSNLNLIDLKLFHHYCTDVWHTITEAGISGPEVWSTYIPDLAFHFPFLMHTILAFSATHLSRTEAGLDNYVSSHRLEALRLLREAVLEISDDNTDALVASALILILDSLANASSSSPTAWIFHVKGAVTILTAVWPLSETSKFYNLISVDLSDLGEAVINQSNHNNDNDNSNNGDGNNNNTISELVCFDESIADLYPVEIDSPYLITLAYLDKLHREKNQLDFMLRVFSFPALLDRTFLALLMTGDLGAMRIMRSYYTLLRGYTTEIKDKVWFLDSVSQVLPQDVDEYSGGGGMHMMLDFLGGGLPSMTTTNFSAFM
- experiment: PBM E-score (8-mer binding enrichment) (E-score (-0.5 to 0.5)); higher = stronger / more preferred TF binding
- test parameters: protein concentration: 200 nM; construct: GST-full length
In all, about 33,000 sequences were measured (“E-score (-0.5 to 0.5)”: median about -0.041, highest 2% from about 0.37 on). The full list was thinned out, with the highest values kept by preference.
// print number alone

Answered cases to consult:
residue codes	target or system	PBM E-score
ACACGGGC	Ecm22 (UniProt Q05958)	-0.0743
ATACGGGG	Ecm22 (UniProt Q05958)	0.386
ATACGGGC	Ecm22 (UniProt Q05958)	0.413
AAACGGGG	Ecm22 (UniProt Q05958)	0.361
GACGAATA	Ecm22 (UniProt Q05958)	0.0261
GAACCCGC	Ecm22 (UniProt Q05958)	0.0274
AGACGAAA	Ecm22 (UniProt Q05958)	0.194
GCTGGCAC	Ecm22 (UniProt Q05958)	-0.325
ATACGGGA	Ecm22 (UniProt Q05958)	0.389
ACACGGGA	Ecm22 (UniProt Q05958)	0.0892

PBM E-score for CACGTACG ?
0.338

Need PBM E-score of CGGCCGTA , thanks.
0.34
